Target: human kinesin Eg5 motor protein (Homo sapiens)
Construct: endogenous in cells
Sequence (P52732 whole entry): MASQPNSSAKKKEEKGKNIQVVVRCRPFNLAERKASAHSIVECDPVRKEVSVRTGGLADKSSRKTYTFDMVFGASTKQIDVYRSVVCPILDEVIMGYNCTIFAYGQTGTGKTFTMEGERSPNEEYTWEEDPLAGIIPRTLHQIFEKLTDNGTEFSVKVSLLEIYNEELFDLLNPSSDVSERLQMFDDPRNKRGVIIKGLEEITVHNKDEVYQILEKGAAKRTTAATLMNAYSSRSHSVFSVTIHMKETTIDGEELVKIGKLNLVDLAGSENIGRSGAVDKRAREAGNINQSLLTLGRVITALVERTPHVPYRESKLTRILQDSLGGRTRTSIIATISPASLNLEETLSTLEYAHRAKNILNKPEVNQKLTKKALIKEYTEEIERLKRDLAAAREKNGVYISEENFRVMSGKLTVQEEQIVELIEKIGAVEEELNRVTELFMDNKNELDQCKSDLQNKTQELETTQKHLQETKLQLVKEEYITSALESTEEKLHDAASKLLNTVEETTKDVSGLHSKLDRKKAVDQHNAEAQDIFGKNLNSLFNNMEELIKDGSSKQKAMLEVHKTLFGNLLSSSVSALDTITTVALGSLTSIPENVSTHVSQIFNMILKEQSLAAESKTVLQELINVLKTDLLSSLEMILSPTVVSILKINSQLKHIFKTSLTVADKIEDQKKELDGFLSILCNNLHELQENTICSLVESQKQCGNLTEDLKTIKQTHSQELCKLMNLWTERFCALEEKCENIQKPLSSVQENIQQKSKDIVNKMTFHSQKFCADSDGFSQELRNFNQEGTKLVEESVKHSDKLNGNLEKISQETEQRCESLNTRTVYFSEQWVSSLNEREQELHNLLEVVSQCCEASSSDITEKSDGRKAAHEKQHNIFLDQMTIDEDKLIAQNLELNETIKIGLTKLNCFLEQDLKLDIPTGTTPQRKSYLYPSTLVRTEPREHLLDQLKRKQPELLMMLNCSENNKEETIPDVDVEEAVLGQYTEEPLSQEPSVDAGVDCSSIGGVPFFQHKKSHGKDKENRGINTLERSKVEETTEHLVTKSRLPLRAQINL
Test: Monopolar spindle formation in HeLa cells treated with MSTLC probes (fixed, tubulin/DNA staining)
Settings: read-out: EC50, monopolar spindles / block of bipolar spindle
Metric: EC50

COc1ccc(C(SC[C@H](N)C(=O)NCCC#CC2=CN3C(=N[N+](=C(C)C)[B-]3(F)F)C=C2)(c2ccccc2)c2ccccc2)cc1
~1130 nM

Measured on human kinesin Eg5 motor protein (Homo sapiens), `COc1ccc(C(SC[C@H](N)C(=O)NCCC#CC2=CN3C(=N[N+](=C(C)C)[B-]3(OC)OC)C=C2)(c2ccccc2)c2ccccc2)cc1` has a documented EC50 of ~1030 nM

----------
Assay: Octanol/water partition coefficient (Log Po/w)
Format: physicochemical
Metric: logP

Memo: F[B-]1(F)N2C=C(I)C=CC2=N[N+]1=C1c2ccccc2-c2ccccc21 [HPY(530)-Iodide] , reported logP: 0.79

Every entry's value here was drawn from patent US8715529B1.
